assay: UV spectrophotometric analysis of compounds in solution; format: physicochemical; settings: at ʎmax, Lambert–Beer equation
measurement_label: Ɛ (molar extinction coefficient)

INSERT INTO assay_data (compound, measurement_label, result) VALUES
  ('COc1ccc(/C=C/c2nc3ccccc3s2)cc1 [BZTst3, (E)-2-(4-methoxystyryl)benzo[d]thiazole]', 'Ɛ (molar extinction coefficient)', '35,125.63 dm^3 mol^−1 cm^−1'),
  ('COc1cc(/C=C/c2nc3ccccc3s2)ccc1O [BZTst6]', 'Ɛ (molar extinction coefficient)', '16,871.66 dm^3 mol^−1 cm^−1'),
  ('O=S(=O)(O)c1ccc2[nH]c(-c3ccccc3)nc2c1 [PBSA, reference compound]', 'Ɛ (molar extinction coefficient)', '23,881.86 dm^3 mol^−1 cm^−1'),
  ('C(=C\c1nc2ccccc2s1)/c1ccccc1 [BZTst1, (E)-2-styrylbenzo[d]thiazole]', 'Ɛ (molar extinction coefficient)', '34,075.83 dm^3 mol^−1 cm^−1');

----------
# IC50 per record follows
Biological target: Human recombinant 5-LO (Homo sapiens, UniProt P09917)
Sequence (P09917 1-674): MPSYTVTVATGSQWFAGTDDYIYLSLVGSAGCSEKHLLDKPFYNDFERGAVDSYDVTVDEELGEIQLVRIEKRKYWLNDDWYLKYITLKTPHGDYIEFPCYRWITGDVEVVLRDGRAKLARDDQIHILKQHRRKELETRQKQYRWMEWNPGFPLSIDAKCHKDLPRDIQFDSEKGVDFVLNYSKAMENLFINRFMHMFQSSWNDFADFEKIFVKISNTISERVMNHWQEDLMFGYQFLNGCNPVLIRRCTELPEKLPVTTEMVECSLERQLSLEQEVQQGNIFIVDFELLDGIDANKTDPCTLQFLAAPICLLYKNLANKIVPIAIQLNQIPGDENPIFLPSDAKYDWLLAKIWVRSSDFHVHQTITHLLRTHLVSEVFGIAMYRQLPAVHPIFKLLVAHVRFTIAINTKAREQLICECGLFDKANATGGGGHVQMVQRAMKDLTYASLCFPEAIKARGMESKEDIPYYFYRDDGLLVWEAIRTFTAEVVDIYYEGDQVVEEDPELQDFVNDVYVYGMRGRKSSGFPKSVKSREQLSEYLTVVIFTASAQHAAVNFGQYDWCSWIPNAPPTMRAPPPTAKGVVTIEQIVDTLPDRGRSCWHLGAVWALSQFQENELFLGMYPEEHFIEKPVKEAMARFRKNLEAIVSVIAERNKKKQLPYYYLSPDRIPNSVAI
Assay: 5-Lipoxygenase inhibition in a cell-free assay
Settings: isolated enzyme
measurement_label: IC50 (nM)

INSERT INTO results (chemical_smiles, recorded_number) VALUES
  ('Oc1ccc(/C=C/c2nc3ccccc3s2)cc1', 9260),
  ('Oc1ccc(/C=C/c2nc3ccccc3s2)cc1O', 50),
  ('COc1cc(/C=C/c2nc3ccccc3s2)ccc1O', 330);

----------
system: skin HaCat keratinocytes; experiment: Cell growth inhibition assay, HaCat; type: cell-based, human; details: 24 h incubation; mean ± SD
pIC50: −log10 of the molar value.
measurement_label: pIC50

INSERT INTO results (compound, recorded_number) VALUES
  ('N.N.[Cl][Pt][Cl] [Cisplatin, reference compound]', 5.70);

----------
test: UV spectrophotometric analysis of compounds in solution; assay type: physicochemical; conditions: 10 µg/mL solution, DMSO diluted in MeOH
measurement_label: ʎmax

INSERT INTO assay_data (compound, measurement_label, result) VALUES
  ('Oc1ccc(/C=C/c2nc3ccccc3s2)cc1O [BZTst4]', 'ʎmax', '363.3 nm'),
  ('COc1ccc(/C=C/c2nc3ccccc3s2)cc1 [BZTst3, (E)-2-(4-methoxystyryl)benzo[d]thiazole]', 'ʎmax', '351.0 nm'),
  ('COc1ccc(/C=C/c2nc3ccccc3s2)cc1O [BZTst5]', 'ʎmax', '358.0 nm'),
  ('C(=C\c1nc2ccccc2s1)/c1ccccc1 [BZTst1, (E)-2-styrylbenzo[d]thiazole]', 'ʎmax', '335.0 nm'),
  ('Oc1ccc(/C=C/c2nc3ccccc3s2)cc1 [BZTst2]', 'ʎmax', '354.4 nm'),
  ('COc1cc(/C=C/c2nc3ccccc3s2)ccc1O [BZTst6]', 'ʎmax', '361.2 nm');

----------
test: UV spectrophotometric analysis of compounds in solution; type: physicochemical; settings: at ʎmax, Lambert–Beer equation
measurement_label: Ɛ (molar extinction coefficient)

INSERT INTO measurements (chemical_smiles, result) VALUES
  ('COc1ccc(/C=C/c2nc3ccccc3s2)cc1O', '22,513.37 dm^3 mol^−1 cm^−1'),
  ('Oc1ccc(/C=C/c2nc3ccccc3s2)cc1O', '22,070.71 dm^3 mol^−1 cm^−1'),
  ('Oc1ccc(/C=C/c2nc3ccccc3s2)cc1', '30,835.44 dm^3 mol^−1 cm^−1');
